target: von Hippel-Lindau disease tumor suppressor/Bromodomain-containing protein 4 (Homo sapiens, UniProt O60885+P40337); assay: Protac activity at VHL E3 ligase/BRD4 in HEK293 cells assessed as BRD4 degradation by HiBiT assay; type: cell-based
Sequence (P40337 whole entry, looked up, other chains not shown): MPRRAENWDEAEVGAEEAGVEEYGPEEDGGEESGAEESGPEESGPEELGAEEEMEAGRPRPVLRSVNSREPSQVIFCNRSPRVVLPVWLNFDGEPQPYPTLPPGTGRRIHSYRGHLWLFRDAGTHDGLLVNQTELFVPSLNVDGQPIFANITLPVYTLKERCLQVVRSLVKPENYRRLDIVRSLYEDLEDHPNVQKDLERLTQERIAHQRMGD
The label depends only on pDC50: true if it is at least 9, false if it is smaller.

The following molecules have reported results that may help.
Cc1ncsc1-c1ccc(CNC(=O)[C@@H]2C[C@@H](O)CN2C(=O)[C@@H](NC(=O)CN2CCN(C(=O)CCCCCNC(=O)C[C@@H]3N=C(c4ccc(Cl)cc4)c4c(sc(C)c4C)-n4c(C)nnc43)CC2)C(C)(C)C)cc1 (stereo in doubt; 8P) ... false
Cc1sc2c(c1C)C(c1ccc(Cl)cc1)=N[C@@H](CC(=O)N1CCN(CCC3CCN(c4ccc5c(c4)CN(C4CCC(=O)NC4=O)C5=O)CC3)CC1)c1nnc(C)n1-2 (stereo in doubt; 6P) ... true

Here is another molecule to look at.
Qu. Identify whether the reported pDC50 of the following molecule is 9 or greater: Cc1sc2c(c1C)C(c1ccc(Cl)cc1)=N[C@@H](CC(=O)NCCCCCC(=O)N1CCN(CCCC3CCN(c4ccc5c(c4)CN(C4CCC(=O)NC4=O)C5=O)CC3)CC1)c1nnc(C)n1-2 (stereo in doubt; 10P)
Ans. true
